- testedOn: T1, ZFP SBS#618 (synthetic)
- T1 chain: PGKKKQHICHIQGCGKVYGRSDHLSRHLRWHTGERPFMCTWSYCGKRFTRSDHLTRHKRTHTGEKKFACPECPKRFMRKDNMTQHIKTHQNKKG
- assayMethodText: EMSA
- testContext: tags: MBP fusion
pKd: −log10 of the molar value.
reportedProperty: pKd

1. AAGGGGGGG (dsDNA) DNA 1: AAGGGGGGG DNA 2: CCCCCCCTT = 9.26
